Assay: protein stability index of a GFP-peptide fusion (yeast GPS) (PSI 1-4); higher = more stable; sorted into four equal gates, so the index is relative within each strain
Conditions: ubr1∆
Property Measured: protein stability index

{"columns": ["Chain Sequence", "Value Reported"],
 "data": [
  ["DNATLTELVDKANIFQV [SSN2]", 3.11],
  ["PVSCIIQNDEEYDTPAL [PRP8]", 1.22],
  ["TLPQPRLNKLNSNGIAM [SMD1]", 2.15],
  ["GKTNIALLTVLKALSHH [BRR2]", 2],
  ["SFTSATERHIQVGDGLE [PRE7]", 2.85],
  ["SYANLPGTITHGMFSSA [FAS1]", 2.51],
  ["FGWLLSDNSVSVRLQVT [IRR1]", 1.13],
  ["VRLPTKVLKISTRKTPN [RPS20]", 2.42],
  ["RVNEMVQGMNDDIFIRY [ECM29]", 2.39],
  ["DLIHKSEAFPSLQSCSV [SMC4]", 2],
  ["LQRTILNRIINHMLIDS [RGR1]", 1.72],
  ["WNLEKWREIIEKVRDYE [IRR1]", 3.19],
  ["NSDDFFMDNSYDIDEID [ESC2]", 2.31],
  ["NTQDLLLLLSLFKKITN [YML103C/NUP188]", 1.55],
  ["LPPEKIYSPLHSFIKML [SIR2]", 1.71],
  ["TQTSKEQEIENNGLPMK [ITC1]", 2.86],
  ["STTFADCPVVPADPDIL [RPC40]", 2.43],
  ["MHDSNLQNNSDSESDSD [SKP1]", 3.02],
  ["PKWERVFLFDIEKVDRE [RRI2]", 2.57],
  ["EDGMIIDVNLNFARQLL [RRP40]", 3.11],
  ["LTQGINGKEVPLAKIYL [MED1]", 2.21],
  ["NDTLPDEISPELLSKYK [SNU114]", 2.86],
  ["KIYRVGKGDDEANGATS [RPL3]", 3.22],
  ["LKLPADATTWRYSMSEQ [IRR1]", 2.5],
  ["HNGWVTSLATSAGQPNL [ASC1]", 2.12],
  ["IAPPVAPHDSEATLLTN [SNF5]", 2.83],
  ["ADDAISMHLLKDWTDTF [SRB8]", 2.95],
  ["SVWKPIAAIIGRLNTLV [IRR1]", 1.63],
  ["NMPNCDYLTLNKVVVNL [RPN2]", 3.02],
  ["NAGPNSNIPNLLRNLES [YDL088C/ASM4]", 2.46],
  ["QKSPKIRDPLTQTGLLQ [RPC82]", 1.91]
]}

----------
Let's look at some sequences and their measured protein stability index.
Assay: protein stability index of a GFP-peptide fusion (yeast GPS) (PSI 1-4); higher = more stable; sorted into four equal gates, so the index is relative within each strain
Conditions: ubr1∆

{"columns": ["Chain Sequence", "protein stability index"],
 "data": [
  ["YGRQELADDLITKMLAS [RPN2]", 3],
  ["VSPNAAPRQEISEEETT [YAR002W/NUP60]", 2.6],
  ["QRRYVIKEKVQFNATIN [ITC1]", 1.68],
  ["QTLKGVGVENNGQYAAF [RPC37]", 2.94],
  ["NESSTFLKLVLSESPVD [SIN4]", 2.02],
  ["NAVLGLGDMAVCFNNLV [YCS4]", 2.68],
  ["ASEREELALIEEAYDNP [PRP8]", 3.5]
]}

----------
Assay: protein stability index of a GFP-peptide fusion (yeast GPS) (PSI 1-4); higher = more stable; sorted into four equal gates, so the index is relative within each strain
Details: doa10∆

{"columns": ["Chain Sequence", "protein stability index"],
 "data": [
  ["LPPEKIYSPLHSFIKML [SIR2]", 1.65],
  ["QESSSTLSTHSTTTSVN [SIN4]", 3.04],
  ["SKKAEKTGTKPAAVFAE [RPL4B]", 2.52],
  ["GFKWLNKLDEYHGLYTN [LIN1]", 1.81],
  ["FAAAPNDTSSGTNAMLP [SNF5]", 3.13],
  ["FPTRLGQGYRKVGIWPY [YJL039C/NUP192]", 3.49],
  ["GNPVNDANLLGAEVLIK [COR1]", 2.56]
]}

----------
Assay: protein stability index of a GFP-peptide fusion (yeast GPS) (PSI 1-4); higher = more stable; sorted into four equal gates, so the index is relative within each strain
Details: ubr1∆

{"columns": ["Chain Sequence", "protein stability index"],
 "data": [
  ["DEEIIQLHFSLLDEEAE [RPO21]", 2.83],
  ["SFLSKHALYLAPSGIRM [SSN2]", 2.19],
  ["IGIDEGSDEAYVKDARK [RPC40]", 3.5],
  ["LEATWNFIEPGINQILG [CDC53]", 3.08],
  ["GPIKTPVGACATSVESV [FAS2]", 2.22],
  ["DLISEILKWVQWSRIVL [MED1]", 3.54],
  ["TTAEPKAKRAKTGSAST [TAF14]", 3.29],
  ["SHEERIEAIDEYNKPNS [ISW2]", 2.94],
  ["NIAFDAHMSIGCLHKGK [YML031W/NDC1]", 2.27],
  ["DSHKRIPDMSKNVELGW [SNU114]", 3.41],
  ["AQQQKRGGFGGRNRGRP [RPS2]", 3.51],
  ["SKKAEKTGTKPAAVFAE [RPL4B]", 2.75],
  ["TVEGISKLLREHGYQSR [RPB2]", 2.64],
  ["DGFDPRGNIKVMFATNR [RPT1]", 3.24],
  ["WTIPHKKWNDLKNKNFK [SIR2]", 3.23],
  ["VRNVKGPVRENDILVLM [RPS28A]", 2.98],
  ["QDDADPMVSVMKMDKSP [RPT2]", 1.52],
  ["NFESISARSSVHESLVT [SRB8]", 2.26],
  ["KMENFEFLPLSLHILMI [SRB8]", 2.85],
  ["AVVGQQIISGNRVPDGF [RPO31]", 2.65],
  ["LQPLEEGLIIDTDKLPI [SIN4]", 2.96],
  ["IAGFDLIGCIDEAKDFI [PUP3]", 3.21],
  ["TRQFEGRSNEIVKTTTK [PRP8]", 3],
  ["DMDAESNESQNGKDSEI [SMC3]", 3.31],
  ["AVVVGTGNIKHEDLVNS [COR1]", 2.71],
  ["ETPSRLLLSPDQWYCID [ITC1]", 2.81],
  ["KYSDILLKKATKPEVAS [CDC53]", 2.47],
  ["DHINWEHIKQDYVASLN [NSL1]", 2.9],
  ["PDVKSLVQLSTMETKTL [SIR4]", 2.98],
  ["TANANKPAFSFGATTND [YJL041W/NSP1]", 2.88],
  ["DLLKFENISLAEFILKN [BRR2]", 2.83]
]}

----------
Assay: protein stability index of a GFP-peptide fusion (yeast GPS) (PSI 1-4); higher = more stable; sorted into four equal gates, so the index is relative within each strain
Conditions: pdr5∆
Each record gets a class by protein stability index: low end: < 2; middle: ≥ 2 and < 3; high end: ≥ 3

{"columns": ["Chain Sequence", "Label Value"],
 "data": [
  ["GKGLQSAIDVLDPLTKD [RPN2]", "middle"],
  ["KGGKGLGKGGAKRHRKI [HHF1]", "high end"],
  ["LHYCVSCAIHARIVRVR [RPS26A]", "low end"],
  ["GSYIDKKCPFTGLVSIR [RPS11A]", "middle"],
  ["SNNSTTNTFGSNSAGTS [YJL041W/NSP1]", "high end"],
  ["LEPGCSVLLHHKTMSIV [RPT2]", "low end"],
  ["STKFDYPPMPFDGFLFG [FAS1]", "middle"],
  ["SCSFFAKLSDTLIIDQV [NUT1]", "low end"],
  ["NLSVTSPYNADFDGDEM [RPO21]", "high end"],
  ["KFHKREVVEAVTVVDTP [RPL3]", "low end"],
  ["DPGRYNKVCRIEAASTT [RPB8]", "middle"]
]}

----------
Assay: protein stability index of a GFP-peptide fusion (yeast GPS) (PSI 1-4); higher = more stable; sorted into four equal gates, so the index is relative within each strain
Details: ubr1∆
Let's look at some sequences and their measured protein stability index.
Property Measured: protein stability index

{"columns": ["Chain Sequence", "Value Reported"],
 "data": [
  ["FNLLILSLNKRIYDREP [YCG1]", 2.33],
  ["HVLNKVTLASILTTAVG [RPN1]", 1.31],
  ["DELDQEILNLSTQELQT [RPT5]", 3.13],
  ["NDEGVWDLVDERTKQRT [PRP8]", 3.26],
  ["MPQSFTSIARIGDYILK [QCR7]", 3.1],
  ["NVVGKLISIISSVIQNY [YML103C/NUP188]", 1.51],
  ["IRARIPFYGSYTETDPA [SRP54]", 2.96]
]}
